Tested on: AR mRNA
PROTOCOL: Dose-dependent antisense inhibition of human AR in HuVEC cells (electroporation, qRT-PCR RTS3559, IC50)
Type: cell-based
EXPERIMENTAL_CONDITIONS: Table 35; HuVEC, electroporation, approximately 16 hours
pIC50: −log10 of the molar value. Oligonucleotides are written 5' to 3', each unit as a sugar letter and its base; * is a phosphorothioate linkage, no mark a phosphodiester; rarer units and linkages stand in square brackets, end groups in braces. Plain capitals give the bases only. k = constrained ethyl (cEt); [5mC] = 5-methylcytosine; d = 2'-deoxy (DNA)

SUBSTANCE | pIC50
584167 (kG*kA*kG*dT*dG*dT*dT*dA*dA*dT*dG*dA*dA*kG*kA*k[5mC]; antisense) [compound 584167] | 6.68
584145 (kA*kT*kG*dG*dG*dA*dG*dT*dA*dA*d[5mC]*dT*dT*kT*kT*kG; antisense) [compound 584145] | 6.44
584152 (kG*kA*kG*dT*dT*dG*dT*dG*dA*dT*dT*dT*d[5mC]*kA*kG*kG; antisense) [compound 584152] | 6.96
584138 (k[5mC]*kG*k[5mC]*dG*d[5mC]*dA*dG*dG*dT*dA*dG*dG*dA*kG*k[5mC]*k[5mC]; antisense) [compound 584138] | 6.43
584111 (kG*kT*kT*dT*dT*d[5mC]*dA*dA*dA*dT*dG*d[5mC]*dA*kG*k[5mC]*k[5mC]; antisense) [compound 584111] | 6.48
584163 (kG*kA*kA*d[5mC]*dA*dT*dT*dA*dT*dT*dA*dG*dG*k[5mC]*kT*kA) [compound 584163] | 6.60
584166 (k[5mC]*kA*k[5mC]*dA*dT*d[5mC]*dA*dG*dA*dA*dG*dG*dA*kG*kT*kA; antisense) [compound 584166] | 7.00
584162 (kT*kG*kG*dA*dT*dT*dG*dT*dA*dA*dA*dT*dT*kA*k[5mC]*kG; antisense) [compound 584162] | 6.74

----------
Here the recorded Platelets is given for each entry.
EXPERIMENTAL_CONDITIONS: cynomolgus monkey, in vivo, sc, 40 mg/kg

SUBSTANCE | Platelets, µL
ISIS 584468: antisense compound targeted to human AR (CATTGTACTATGCCAG; 3-10-3 (S)-cEt gapmer, further chemistry not given here) | 408000
TGATTTAATGGTTGCA [ISIS 569221] (cEt/MOE gapmer chemistry, further chemistry not given here) | 406000
TTGATTTAATGGTTGC [ISIS 579671] (cEt/MOE gapmer chemistry, further chemistry not given here) | 438000

----------
Here the recorded pIC50 is given for each entry.
System: AR mRNA
PROTOCOL: Dose-dependent antisense inhibition of human AR in HuVEC cells (electroporation, qRT-PCR RTS3559, IC50)
Format: cell-based
EXPERIMENTAL_CONDITIONS: HuVEC cells, electroporation
pIC50: −log10 of the molar value. Oligonucleotides are written 5' to 3', each unit as a sugar letter and its base; * is a phosphorothioate linkage, no mark a phosphodiester; rarer units and linkages stand in square brackets, end groups in braces. Plain capitals give the bases only. k = constrained ethyl (cEt); [5mC] = 5-methylcytosine; d = 2'-deoxy (DNA)

SUBSTANCE | pIC50
549372 (kA*kA*kG*dT*dT*dG*dT*dA*dG*dT*dA*dG*dT*k[5mC]*kG*k[5mC]) [compound 549372] | 6.54
586224 (kT*kT*kG*kA*kT*dT*dT*dA*dA*dT*dG*dG*dT*kT*kG*k[5mC]; antisense) [compound 586224] | 7.30
549458 (kG*kT*kT*dG*dA*dT*dT*dT*dA*dA*dT*dG*dG*kT*kT*kG) [compound 549458] | 6.72
586225 (kG*kT*kT*kG*kA*dT*dT*dT*dA*dA*dT*dG*dG*kT*kT*kG; antisense) [compound 586225] | 6.89
586227 (kT*kG*kA*kT*kT*dT*dA*dA*dT*dG*dG*dT*dT*kG*k[5mC]*kA; antisense) [compound 586227] | 6.89
586124 (kG*kA*kT*dT*dT*dA*dA*dT*dG*dG*dT*dT*dG*k[5mC]*kA*kA; further chemistry not given here) [compound 586124] | 6.89

----------
Here the recorded percent inhibition of AR, 46.9 nM is given for each entry.
Test system: AR mRNA
PROTOCOL: Dose-dependent antisense inhibition of human AR in HuVEC cells (electroporation, qRT-PCR RTS3559, IC50)
Format: cell-based
EXPERIMENTAL_CONDITIONS: Table 29; 46.9 nM, HuVEC, electroporation, approximately 16 hours
Oligonucleotides are written 5' to 3', each unit as a sugar letter and its base; * is a phosphorothioate linkage, no mark a phosphodiester; rarer units and linkages stand in square brackets, end groups in braces. Plain capitals give the bases only. k = constrained ethyl (cEt); [5mC] = 5-methylcytosine; d = 2'-deoxy (DNA)
PROPERTY_NAME: percent inhibition of AR, 46.9 nM (%)

SUBSTANCE | STUDY_SYSTEM | ENDPOINT_UNIT | OBSERVED_VALUE
583649 (antisense kA*kG*kG*d[5mC]*dT*d[5mC]*dA*d[5mC]*dA*dG*dT*d[5mC]*dT*kG*kT*k[5mC]) [compound 583649] | AR mRNA | % | 28
583662 (antisense kA*kG*kA*dA*dG*dA*d[5mC]*dA*d[5mC]*dA*d[5mC]*dG*dG*kT*kG*kG) [compound 583662] | AR mRNA | % | 27
583559 (antisense kA*kG*kT*d[5mC]*dT*dT*dT*dA*dG*d[5mC]*dA*dG*d[5mC]*kT*kT*kT) [compound 583559] | AR mRNA | % | 30
583638 (antisense kT*kG*kA*dT*d[5mC]*dT*d[5mC]*dT*dG*dG*d[5mC]*dT*d[5mC]*k[5mC]*kG*k[5mC]) [compound 583638] | AR mRNA | % | 33
583608 (antisense kG*k[5mC]*kT*dA*dG*d[5mC]*dT*d[5mC]*dG*d[5mC]*d[5mC]*d[5mC]*dG*k[5mC]*kT*k[5mC]) [compound 583608] | AR mRNA | % | 12
583556 (antisense kA*kA*k[5mC]*dT*dT*d[5mC]*dA*d[5mC]*d[5mC]*dG*dA*dA*dG*kA*kG*kG) [compound 583556] | AR mRNA | % | 19
583660 (antisense kG*kA*k[5mC]*dA*d[5mC]*dA*d[5mC]*dG*dG*dT*dG*dG*dA*k[5mC]*kA*kA) [compound 583660] | AR mRNA | % | 21
583584 (antisense k[5mC]*k[5mC]*kG*dA*d[5mC]*dT*dG*dA*dG*dG*d[5mC]*dA*dG*k[5mC]*kT*kG) [compound 583584] | AR mRNA | % | 24
583571 (antisense kT*k[5mC]*kA*dG*dT*d[5mC]*d[5mC]*dT*dA*d[5mC]*d[5mC]*dA*dG*kG*k[5mC]*kA) [compound 583571] | AR mRNA | % | 18
583566 (antisense k[5mC]*k[5mC]*kT*dT*dG*d[5mC]*dT*dT*d[5mC]*d[5mC]*dT*d[5mC]*d[5mC]*kG*kA*kG) [compound 583566] | AR mRNA | % | 0
549458 (kG*kT*kT*dG*dA*dT*dT*dT*dA*dA*dT*dG*dG*kT*kT*kG) [compound 549458] | AR mRNA | % | 21
583542 (antisense kA*k[5mC]*kA*dG*d[5mC]*dA*d[5mC]*dT*dG*dG*dA*dG*d[5mC]*kG*kG*k[5mC]) [compound 583542] | AR mRNA | % | 9

----------
System: AR mRNA
PROTOCOL: Antisense inhibition of human AR in HuVEC cells, single concentration (electroporation, qRT-PCR RTS3559)
Format: cell-based
EXPERIMENTAL_CONDITIONS: Table 19, 500 nM oligonucleotide, electroporation, approximately 24 hours, relative to untreated control
Oligonucleotides are written 5' to 3', each unit as a sugar letter and its base; * is a phosphorothioate linkage, no mark a phosphodiester; rarer units and linkages stand in square brackets, end groups in braces. Plain capitals give the bases only. k = constrained ethyl (cEt); [5mC] = 5-methylcytosine; d = 2'-deoxy (DNA)
Here the recorded % inhibition is given for each entry.

SUBSTANCE | STUDY_SYSTEM | % inhibition / %
583787 (antisense kG*kG*kT*dG*d[5mC]*dT*dG*dG*d[5mC]*d[5mC]*dT*d[5mC]*dG*k[5mC]*kT*k[5mC]) [compound 583787] | AR mRNA | 37
583809 (antisense kT*kG*kT*d[5mC]*d[5mC]*dT*dT*dG*dG*dA*dG*dG*dA*kA*kG*kT) [compound 583809] | AR mRNA | 45
583789 (antisense kT*kG*k[5mC]*dA*dT*dG*dG*dT*dG*d[5mC]*dT*dG*dG*k[5mC]*k[5mC]*kT) [compound 583789] | AR mRNA | 39
